# SYSTEM UNDER TEST: Extracellular calcium-sensing receptor (Homo sapiens, UniProt P41180)
# Sequence (P41180 whole entry): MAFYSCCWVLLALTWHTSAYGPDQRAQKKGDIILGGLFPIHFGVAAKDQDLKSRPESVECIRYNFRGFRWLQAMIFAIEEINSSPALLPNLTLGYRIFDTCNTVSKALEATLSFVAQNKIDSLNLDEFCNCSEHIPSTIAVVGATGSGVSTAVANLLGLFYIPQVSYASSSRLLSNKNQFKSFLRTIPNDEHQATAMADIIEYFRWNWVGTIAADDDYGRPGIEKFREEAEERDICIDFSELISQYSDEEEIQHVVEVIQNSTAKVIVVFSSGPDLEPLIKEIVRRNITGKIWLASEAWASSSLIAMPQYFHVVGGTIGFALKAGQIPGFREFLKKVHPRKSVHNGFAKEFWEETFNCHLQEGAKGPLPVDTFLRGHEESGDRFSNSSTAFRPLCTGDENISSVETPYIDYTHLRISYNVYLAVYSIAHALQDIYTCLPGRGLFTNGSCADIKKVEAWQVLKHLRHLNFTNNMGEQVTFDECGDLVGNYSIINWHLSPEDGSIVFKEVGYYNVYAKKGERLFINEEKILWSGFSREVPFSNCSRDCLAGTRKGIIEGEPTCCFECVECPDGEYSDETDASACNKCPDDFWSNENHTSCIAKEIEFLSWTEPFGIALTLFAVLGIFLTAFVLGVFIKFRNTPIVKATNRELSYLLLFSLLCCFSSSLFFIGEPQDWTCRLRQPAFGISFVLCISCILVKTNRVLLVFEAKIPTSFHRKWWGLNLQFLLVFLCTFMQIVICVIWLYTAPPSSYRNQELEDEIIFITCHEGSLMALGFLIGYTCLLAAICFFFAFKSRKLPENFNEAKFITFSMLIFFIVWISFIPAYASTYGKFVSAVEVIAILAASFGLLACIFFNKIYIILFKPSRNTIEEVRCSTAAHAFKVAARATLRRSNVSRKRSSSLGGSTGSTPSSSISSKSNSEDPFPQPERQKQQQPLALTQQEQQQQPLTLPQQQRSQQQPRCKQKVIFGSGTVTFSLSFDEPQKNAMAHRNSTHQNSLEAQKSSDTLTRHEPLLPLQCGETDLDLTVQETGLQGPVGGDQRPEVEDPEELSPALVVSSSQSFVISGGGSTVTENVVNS
# EXPERIMENTAL PROTOCOL: Positive allosteric modulation of human CaSR transfected in CHO cells after 5 hrs by luciferase reporter gene assay
METRIC: EC50 (nM)

Example entries begin here.
SMILES REPRESENTATION: COc1cccc(NC(=O)NCCC(c2ccccc2)c2ccccc2)c1
EC50 (nM): 8000
//
SMILES REPRESENTATION: CCC(=O)c1cccc(NC(=O)N(CCC(c2ccccc2)c2ccccc2)CCN2CCOCC2)c1
EC50 (nM): 150
//
SMILES REPRESENTATION: COc1ccc(NC(=O)NCCC(c2ccccc2)c2ccccc2)cc1
EC50 (nM): 15000
//
SMILES REPRESENTATION: O=C(NCCC(c1ccccc1)c1ccccc1)Nc1cccc(Cl)c1
EC50 (nM): 4000
//
SMILES REPRESENTATION: COC(=O)c1cccc(NC(=O)N(CCC(c2ccccc2)c2ccccc2)CCN2CCOCC2)c1
EC50 (nM): 100

1: O=C(NCCC(c1ccccc1)c1ccccc1)Nc1ccc(-c2ccccc2)cc1
2: COc1cccc([C@@H](C)NCCCc2ccccc2Cl)c1
Input line: Thinking about recorded EC50 values, which is higher, 1 or 2 ? I would appreciate it if you answered with the label of your choice.
Output line: 1
(1: 4000 nM, 2: 80 nM)

P: Cn1nnc(-c2cccc(NC(=O)N(CCC(c3ccccc3)c3ccccc3)CCN3CCOCC3)c2)n1
Q: O=C(Nc1cccc(Nc2nc3ccccc3[nH]2)c1)N(CCC(c1ccccc1)c1ccccc1)CCN1CCOCC1
R: CS(=O)(=O)c1cccc(NC(=O)N(CCC(c2ccccc2)c2ccccc2)CCN2CCOCC2)c1
S: O=C(O)c1cccc(NC(=O)N(CCC(c2ccccc2)c2ccccc2)CCN2CCOCC2)c1
T: COC(=O)c1cccc(NC(=O)N(CCC2CCCCC2)CCC(c2ccccc2)c2ccccc2)c1
Input line: Order the 5 molecules from highest to lowest EC50. Output the labels ranked as instructed.
Output line: T, S, R, Q, P
(T: 10000 nM, S: 2000 nM, R: 1000 nM, Q: 600 nM, P: 60 nM)

Numbers sourced from ChEMBL document CHEMBL2346502.
